Hello, the source for this data is ChEMBL document CHEMBL3885861, in case you need it.

Recorded TC by entry
Organism: Rattus norvegicus
ASSAY_TEXT: Open TG-GATES - Regimen: Single
Format: toxicity, organism-based, Sprague-Dawley
Set-up: regimen Single, gender Male, age 6 weeks
RECORDED_CONDITIONS: in vivo, po, 1000 mg/kg, 3 h, tissue Plasma, route gavage, dose level High
Unit mg/dL implied. Number only.

- COMPOUND: "CNC(=C[N+](=O)[O-])NCCSCc1ccc(CN(C)C)o1 [RANITIDINE]"
  MEAS_VALUE: 68
- COMPOUND: "Cc1nnc2n1-c1ccc(Cl)cc1C(c1ccccc1Cl)=NC2 [TRIAZOLAM]"
  MEAS_VALUE: 78.2
- COMPOUND: "COC(=O)C1=C(C)NC(C)=C(C(=O)OC)C1c1ccccc1[N+](=O)[O-] [NIFEDIPINE]"
  MEAS_VALUE: 81.6
- COMPOUND: "CN/C(=N/CCSCc1nc[nH]c1C)NC#N [CIMETIDINE]"
  MEAS_VALUE: 77.6

Please turn your attention to the following entry.
Query: Fill blank: measured TC of the compound O=C(OC[C@H]1O[C@@H](OC(=O)c2cc(O)c(O)c(OC(=O)c3cc(O)c(O)c(O)c3)c2)[C@H](OC(=O)c2cc(O)c(O)c(OC(=O)c3cc(O)c(O)c(O)c3)c2)[C@@H](OC(=O)c2cc(O)c(O)c(OC(=O)c3cc(O)c(O)c(O)c3)c2)[C@@H]1OC(=O)c1cc(O)c(O)c(OC(=O)c2cc(O)c(O)c(O)c2)c1)c1cc(O)c(O)c(OC(=O)c2cc(O)c(O)c(O)c2)c1 [TANNIC ACID] is ____.
Result: 72.8

###

Species on record: Rattus norvegicus
ASSAY_TEXT: Open TG-GATES - Regimen: Single
Format: toxicity, organism-based, Sprague-Dawley
Set-up: regimen Single, gender Male, age 6 weeks
RECORDED_CONDITIONS: in vivo, po, 1000 mg/kg, 9 h, tissue Blood, route gavage, dose level High
TEST_READOUT: MCV (fL)
Number only, in fL; omit the unit.

Example molecules with recorded MCV:
- MOLECULE: "O=C(OC[C@H]1O[C@@H](OC(=O)c2cc(O)c(O)c(OC(=O)c3cc(O)c(O)c(O)c3)c2)[C@H](OC(=O)c2cc(O)c(O)c(OC(=O)c3cc(O)c(O)c(O)c3)c2)[C@@H](OC(=O)c2cc(O)c(O)c(OC(=O)c3cc(O)c(O)c(O)c3)c2)[C@@H]1OC(=O)c1cc(O)c(O)c(OC(=O)c2cc(O)c(O)c(O)c2)c1)c1cc(O)c(O)c(OC(=O)c2cc(O)c(O)c(O)c2)c1 [TANNIC ACID]"
  MCV, fL: 66.5
- MOLECULE: "CNC(=C[N+](=O)[O-])NCCSCc1ccc(CN(C)C)o1 [RANITIDINE]"
  MCV, fL: 62.5
- MOLECULE: "Cc1nnc2n1-c1ccc(Cl)cc1C(c1ccccc1Cl)=NC2 [TRIAZOLAM]"
  MCV, fL: 63.8
- MOLECULE: "CN/C(=N/CCSCc1nc[nH]c1C)NC#N [CIMETIDINE]"
  MCV, fL: 63

# ---- query molecule ----
Query: Need MCV of COC(=O)C1=C(C)NC(C)=C(C(=O)OC)C1c1ccccc1[N+](=O)[O-] [NIFEDIPINE] , thanks.
Result: 62.5
